# maps each entry to its Ki
STUDY TARGET: human 5-HT2C-INI (WT) receptor (Homo sapiens, UniProt P28335, S138A)
Sequence (P28335 33-458 S138A): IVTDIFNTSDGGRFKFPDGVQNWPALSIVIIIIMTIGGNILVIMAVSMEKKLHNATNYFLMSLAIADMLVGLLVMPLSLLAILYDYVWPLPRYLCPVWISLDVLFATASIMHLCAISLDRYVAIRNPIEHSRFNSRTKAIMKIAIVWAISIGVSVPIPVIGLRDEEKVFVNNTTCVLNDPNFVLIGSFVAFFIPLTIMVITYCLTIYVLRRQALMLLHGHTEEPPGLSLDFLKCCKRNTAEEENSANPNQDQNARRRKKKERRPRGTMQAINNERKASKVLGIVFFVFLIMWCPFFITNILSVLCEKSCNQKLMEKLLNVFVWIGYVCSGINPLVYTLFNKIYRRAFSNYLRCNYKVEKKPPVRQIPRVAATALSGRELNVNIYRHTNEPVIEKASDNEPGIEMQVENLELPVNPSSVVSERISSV
ASSAY TEXT: competition with [3H]-mesulergine, HEK membranes
Entry rule: numbers only, all in µM.

# COMPOUND, NUMERIC RESULT
rows = [
    ("NC1Cc2ccccc2C(c2ccccc2)C1 (racemic)", 9.04),
]

Now look at this one.
Input line: Find the recorded Ki belonging to "NCCc1c[nH]c2ccccc12" and report it.
Output line: 1.51
